Biological target: p38a activated, mitogen-activated protein kinase-activated protein kinase 2 (MAPKAP-K2 or MK2) enzyme (Homo sapiens (Human), UniProt P49137)
Sequence (P49137 whole entry): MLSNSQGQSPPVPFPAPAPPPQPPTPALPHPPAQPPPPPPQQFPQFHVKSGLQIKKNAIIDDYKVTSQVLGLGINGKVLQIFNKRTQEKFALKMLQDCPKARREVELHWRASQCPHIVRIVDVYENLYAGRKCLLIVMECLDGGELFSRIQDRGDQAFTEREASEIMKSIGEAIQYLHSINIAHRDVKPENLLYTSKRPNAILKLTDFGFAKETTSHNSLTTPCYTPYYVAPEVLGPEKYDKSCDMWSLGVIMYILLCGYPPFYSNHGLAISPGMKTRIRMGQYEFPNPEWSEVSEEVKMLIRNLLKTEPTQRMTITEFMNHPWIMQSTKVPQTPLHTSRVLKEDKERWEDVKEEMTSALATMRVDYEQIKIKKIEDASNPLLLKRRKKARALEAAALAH
Assay: MK2 Omnia continuous-read kinase assay for compound potency
Settings: [MK-2]=0.4 nM, [ATP]=10 μM, [ST3-Sox]=10 μM; room temperature
experimentalReadout: pIC50
In textbook form, pIC50 equals minus log to base ten of the concentration in mol/L.

C=Cc1cc(-c2ccc3c(ccc4sc5c(c43)NC[C@@H](C)NC5=O)n2)c(C(=O)OC)nn1 :: 8.52

// field: pIC50; key: C=Cc1cc(-c2ccc3c(ccc4sc5c(c43)NC[C@@H](C)NC5=O)n2)nc(C#CC(C)(C)N)n1 ; value = 8.05

// field: pIC50; key: C=Cc1nc(C2CC2)n(-c2ccc3c(ccc4sc5c(c43)NC[C@@H](C)NC5=O)n2)n1 ; value = 6.52

// field: pIC50; key: C=Cc1nc(C(F)(F)F)nn1-c1ccc2c(ccc3sc4c(c32)NC[C@@H](C)NC4=O)n1 ; value = 8.15

// field: pIC50; key: C=Cc1nccn1-c1ccc2c(ccc3sc4c(c32)NC[C@@H](CF)NC4=O)n1 ; value = 9.00

// field: pIC50; key: C=Cc1cc(-c2ccc3c(ccc4sc5c(c43)NC[C@@H](C)NC5=O)n2)cc(C2=CCN(C)CC2)n1 ; value = 8.10

// field: pIC50; key: C#Cc1cc(-c2ccc3c(ccc4sc5c(c43)NC[C@@H](C)NC5=O)n2)cc(CN2C[C@@H](C)O[C@H](C)C2)n1 ; value = 7.60

----------
Biological target: p38a activated, mitogen-activated protein kinase-activated protein kinase 2 (MAPKAP-K2 or MK2) enzyme (Homo sapiens (Human), UniProt P49137)
Experiment: MK2 Omnia continuous-read kinase assay for compound potency
Settings: [MK-2]=0.4 nM, [ATP]=10 μM, [ST3-Sox]=10 μM; room temperature
experimentalReadout: IC50 (µM)
# output: bare number, implied unit µM

Please review the entries below; each comes with its answer.
C=Cc1cc(-c2ccc3c(ccc4sc5c(c43)NC[C@@H](C)NC5=O)n2)c(C#N)cn1 :: 0.002
C=Cc1cc(-c2ccc3c(ccc4sc5c(c43)NC[C@@H](C)NC5=O)n2)c(F)cn1 :: 0.064
C#Cc1nccc(-c2ccc3c(ccc4sc5c(c43)NC[C@@H](C)NC5=O)n2)n1 :: 0.025
C#Cc1cc(-c2ccc3c(ccc4sc5c(c43)NC[C@@H](C)NC5=O)n2)cc(N2CC(F)(F)C2)n1 :: 0.839

// field: IC50; key: C[C@@H]1CNc2c(sc3ccc4nc(-c5nc(Cl)ncc5F)ccc4c23)C(=O)N1 ; value = 0.153

// field: IC50; key: C[C@@H]1CNc2c(sc3ccc4nc(-n5cc(Cl)cn5)ccc4c23)C(=O)N1 ; value = 0.086

// field: IC50; key: C=Cc1sncc1-c1ccc2c(ccc3sc4c(c32)NC[C@@H](C)NC4=O)n1 ; value = 0.123

// field: IC50; key: C=Cc1cc(-c2ccc3c(ccc4sc5c(c43)NC[C@@H](C)NC5=O)n2)c(CN2CCOCC2)cn1 ; value = 0.023

// field: IC50; key: C=Cc1ncc(COC2(C)COC2)c(-c2ccc3c(ccc4sc5c(c43)NC[C@@H](C)NC5=O)n2)n1 ; value = 0.02

// field: IC50; key: C/C=C/c1cc(-c2ccc3c(ccc4sc5c(c43)NC[C@@H](C)NC5=O)n2)nc(COCC)n1 ; value = 0.04

// field: IC50; key: C[C@@H]1CNc2c(sc3ccc4nc(-c5cc(Cl)nc(CO)c5)ccc4c23)C(=O)N1 ; value = 0.06

// field: IC50; key: C[C@@H]1CNc2c(sc3ccc4nc(-c5cc(Cl)nc(COC6CCNCC6)n5)ccc4c23)C(=O)N1 ; value = 0.012

// field: IC50; key: C#Cc1cc(-c2ccc3c(ccc4sc5c(c43)NC[C@@H](C)NC5=O)n2)c(OC)nn1 ; value = 0.026
